Entries and their cAMP Rel EC50, nM (1% HSA)
- subject of test: human glucagon receptor (human) (UniProt P47871)
- Sequence (P47871 26-477): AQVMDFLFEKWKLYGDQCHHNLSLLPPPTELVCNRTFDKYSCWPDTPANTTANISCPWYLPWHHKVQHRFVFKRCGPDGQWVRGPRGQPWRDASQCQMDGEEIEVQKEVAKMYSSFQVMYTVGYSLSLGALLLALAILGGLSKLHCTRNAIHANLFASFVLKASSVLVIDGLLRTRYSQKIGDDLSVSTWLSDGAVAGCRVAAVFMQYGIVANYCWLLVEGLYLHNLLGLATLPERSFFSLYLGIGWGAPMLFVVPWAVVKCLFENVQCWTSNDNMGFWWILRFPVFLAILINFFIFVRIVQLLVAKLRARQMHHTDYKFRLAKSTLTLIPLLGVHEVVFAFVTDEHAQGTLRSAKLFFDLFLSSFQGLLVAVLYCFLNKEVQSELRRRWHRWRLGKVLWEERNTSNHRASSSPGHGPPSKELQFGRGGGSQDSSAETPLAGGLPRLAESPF
- assay name: cell-based or functional assay
measurement name: cAMP Rel EC50, nM (1% HSA)

binder: YXQGTXTSDYSIXLDKKAQXAFIEYLEEGGPSSGAPPPE (synthetic construct; SITE 2: note = 2-Aminoisobutyric Acid; SITE 6: note = alpha-methyl-2-fluoro-L-phenylalanine; SITE 13: note = alpha-methyl-leucine; SITE 17: note = Lysine is chemically modified through conjugation of the epsilon-amino group of the Lysine side chain with (2-[2-(2-Amino-ethoxy)-et)) [Example 400]
value: 265 nM
--
binder: YXQGTXTSDYSILLDKKAQXAFIEYLEEGGPSSGAPPPSEG (not fully specified; synthetic construct; SITE 2: note = 2-Aminoisobutyric Acid; SITE 6: note = alpha-methyl-2-fluoro-L-phenylalanine; SITE 17: note = Lysine is chemically modified through conjugation of the epsilon-amino group of the Lysine side chain with (2-[2-(2-Amino-ethoxy)-ethoxy]-acetyl)-(gamma-Glu)-CO-(CH2) 16-) [Example 398]
value: 375 nM
--
binder: YXQGTFTSDFSQXLDKKAQXAFIEYLLAGGPSSGAPPPEGS (synthetic construct; SITE 2: note = 2-Aminoisobutyric Acid; SITE 13: note = alpha-methyl-leucine; SITE 17: note = Lysine is chemically modified through conjugation of the epsilon-amino group of the Lysine side chain with (2-[2-(2-Amino-ethoxy)-ethoxy]-acetyl)-(gamma-Glu)-CO-(CH2) 16-CO2H; SITE 20: n) [Example 772]
value: 1880 nM
--
binder: YXQGTFTSDFSXXLDKKAQXAFIEYLLEGGXSSGAPPPGGS (synthetic construct; SITE 2: note = 2-Aminoisobutyric Acid; SITE 12: note = L-ornithine; SITE 13: note = alpha-methyl-leucine; SITE 17: note = Lysine is chemically modified through conjugation of the epsilon-amino group of the Lysine side chain with (2-[2-(2-Amino-ethoxy)-ethoxy]-acetyl)-(gamma-Glu)) [Example 163]
value: 790 nM
--
binder: YXQGTFTSDXSQXLDXKAQXAFIEYLIAGGPSSGEPPPSGSE (non-natural residues; lipidated Lys; C-terminal amide; synthetic construct; SITE 2: note = 2-Aminoisobutyric Acid; SITE 10: note = 3-(4-Pyridyl)-L-alanine; SITE 13: note = alpha-methyl-leucine; SITE 16: note = L-ornithine; SITE 17: note = Lysine is chemically modified through conjugation of the epsilon-amino group of the Lysine side chain with (gamma-Gl)) [Example 1008]
value: 1010 nM
--
binder: YXQGTFTSDFSXXLDKKAQXAFIEYLLEGGPSSXAPPPGGS (not fully specified; synthetic construct; SITE 2: note = 2-Aminoisobutyric Acid; SITE 12: note = L-ornithine; SITE 13: note = alpha-methyl-leucine; SITE 17: note = Lysine is chemically modified through conjugation of the epsilon-amino group of the Lysine side chain with (gamma-Glu)2-CO-(CH2)16-CO2H; SITE 20: note = 2-Am) [Example 770]
value: 390 nM
